Values from patent US12077503B2

System: morningglory (Ipomoea coccinea)
Experiment: Test C preemergence
Assay type: in vivo
Conditions: 250 g ai/ha, scale 0 to 100, 0 no effect, 100 complete control
Mark satisfied for Plant response rating, Morningglory under 40, not satisfied if at or over.

Use the examples below as a reference point.
{"columns": ["COMPOUND", "TGT", "CLASS"],
 "data": [
  ["Cc1ccc(C2CN(C)C(=O)C2C(=O)Nc2ccccc2C(F)(F)F)cc1 (centres unmarked)", "morningglory (Ipomoea coccinea)", "satisfied"],
  ["O=C1NCC(c2ccc(Br)cc2)C1C(=O)Nc1cccc(F)c1F (centres unmarked)", "morningglory (Ipomoea coccinea)", "satisfied"],
  ["O=C1NCC(c2cccc(C(F)(F)F)c2F)C1C(=O)Nc1cccc(F)c1F (centres unmarked)", "morningglory (Ipomoea coccinea)", "not satisfied"],
  ["CN1CC(c2cc(F)cc(F)c2)C(C(=O)Nc2cccc(F)c2F)C1=O (centres unmarked)", "morningglory (Ipomoea coccinea)", "satisfied"],
  ["CC(C)Oc1cccc(C2CN(C)C(=O)C2C(=O)Nc2cccc(F)c2F)c1 (centres unmarked)", "morningglory (Ipomoea coccinea)", "satisfied"]
]}

Kindly review the next compound as well.
IN: I wonder whether Cc1ccc(C2CN(C)C(=O)C2C(=O)Nc2ccccc2F)cc1F (centres unmarked) has Plant response rating, Morningglory below 40. Can you tell?
OUT: not satisfied

----------
Give pest or weed control at 31 g/ha for every item shown.
Tested on: ragweed (common ragweed, Ambrosia elatior)
Assay: Test A postemergence
Assay type: in vivo
Settings: Ambrosia artemisiifolia, post-emergence, 240 h, Postemergence, 31 g ai/ha; visual injury after approx. 10 d; 0 to 100 scale, 0 no effect, 100 complete control; read-out: Plant response rating, Ragweed
Numbers only, in %.

{"columns": ["COMPOUND", "pest or weed control at 31 g/ha [%]"],
 "data": [
  ["CN1C[C@H](c2ccc(F)c(Oc3ccccc3)c2)[C@@H](C(=O)Nc2ccccc2S(C)(=O)=O)C1=O [Compound 1143]", 0],
  ["Cc1ccc([C@H]2CN(C)C(=O)[C@@H]2C(=O)Nc2cnccc2C(F)(F)F)cc1 [Compound 1067]", 0],
  ["O=C1NCC[C@H](c2ccc(Cl)cc2)[C@H]1C(=O)Nc1cccc(F)c1F [Compound 795]", 0],
  ["Cc1ccncc1NC(=O)[C@H]1C(=O)N(C)C[C@@H]1c1ccc(C(F)(F)F)cc1 [Compound 1068]", 0],
  ["CN1CC[C@H](c2ccccc2C(F)(F)F)[C@@H](C(=O)Nc2ccc(F)c(F)c2F)C1=O [Compound 1010]", 0],
  ["CSc1ccccc1NC(=O)[C@H]1C(=O)N(C)CC[C@@H]1c1ccc2c(c1)OC(F)(F)O2 [Compound 814]", 0]
]}

Hi there! I need pest or weed control at 31 g/ha for each item below, if you can.
1. CSc1ccccc1NC(=O)[C@H]1C(=O)N(C)C[C@@H]1c1ccc(C(F)(F)F)cn1 [Compound 1051]
2. CN1C[C@H](c2csc3c2CCC3)[C@@H](C(=O)Nc2ccc(F)c(F)c2F)C1=O [Compound 1081]

OUT:
1: 0; 2: 0

----------
Test system: giant foxtail (Setaria faberii)
Assay: Test A postemergence
Assay type: in vivo
Conditions: Postemergence, 500 g ai/ha; 0 to 100 scale where 0 is no effect and 100 is complete control
Give Plant response rating, Foxtail, Giant for every item shown.
One number for each entry.

Known results for compounds:
{"columns": ["COMPOUND", "Plant response rating, Foxtail, Giant"],
 "data": [
  ["CN1CC(c2cccc(Br)c2)C(C(=O)Nc2cccc(F)c2F)C1=O (stereo not shown)", 80],
  ["CCc1cccc(C2CN(C)C(=O)C2C(=O)Nc2ccccc2S(C)(=O)=O)c1 (stereo not shown)", 90],
  ["C=C(Cl)CN1CC(c2cccc(C(F)(F)F)c2)C(C(=O)Nc2cccc(F)c2F)C1=O (stereo not shown)", 50]
]}

Now look at this entry.
IN: Give the reported Plant response rating, Foxtail, Giant for CN1CC(c2cccc(OC(F)F)c2)C(C)(C(=O)Nc2cccc(F)c2F)C1=O (stereo not shown) (system: giant foxtail (Setaria faberii)).
OUT: 0
